Test system: HepaRG
Assay: LDH release cytotoxicity, % of total lysis control; higher = more cytotoxic
Conditions: 0.1 µM; 48 h
Please go through the items and note down their LDH release cytotoxicity.
Numbers only, in %.

These recorded examples may help you get a feel for the data.
COC(=O)NC(=S)Nc1ccccc1NC(=S)NC(=O)OC [Thiophanate-methyl] | -0.552
CC(C)=CCCC(C)=CC=O | -2.58
CC(C)(O)c1coc(S(=O)(=O)NC(=O)Nc2c3c(cc4c2CCC4)CCC3)c1 | -0.342

Go through the list and state LDH release cytotoxicity for each entry.
1. O=C(O)C(F)(F)C(F)(F)C(F)(F)C(F)(F)C(F)(F)C(F)(F)C(F)(F)C(F)(F)C(F)(F)F
2. Oc1ccc2ccccc2c1N=Nc1ccccc1
3. N#CC(Br)Br
4. CCOP(=S)(OCC)SCCSCC
5. O=C(NC1CN2CCC1CC2)c1ccc2c(c1)OCCO2 (centres undefined)
6. Nc1ccc(-c2ccc(N)cc2)cc1
7. Cc1cccc([N+](=O)[O-])c1C
8. Nc1c(Cl)c(Cl)nc(C(=O)O)c1Cl

[out]
1. -0.365
2. -3.7
3. -3.22
4. -1.12
5. -1.45
6. -2.2
7. -0.56
8. -3.68

====

Tested on: HepaRG
Assay: LDH release cytotoxicity, % of total lysis control; higher = more cytotoxic
Conditions: 31.6228 µM; 48 h
measurement-kind: LDH release cytotoxicity

These recorded examples may help you get a feel for the data.
COc1ccc([N+](=O)[O-])cc1N [5-Nitro-o-anisidine] | 0.0123%
O=C(NS(=O)(=O)C=Cc1ccccc1)c1ccc(F)cc1Cl | -0.552%
O=C(NC(c1ccccc1)C1CCCCN1)c1cccc(C(F)(F)F)c1Cl (configuration not stated) | 24.2%
Clc1nc(Cl)c(Cl)c(Cl)c1Cl [Pentachloropyridine] | -0.833%
CC(C)=CCC/C(C)=C/CO [Geraniol] | -1.12%

Go through the list and state LDH release cytotoxicity for each entry.
1. CCCCC(CC)COC(=O)CC(C(=O)OCC(CC)CCCC)S(=O)(=O)O (configuration not stated) [Docusate sodium]
2. FC(F)(F)C(F)(F)C(F)(F)C(F)(F)C(F)(F)C(F)(F)CCI [1H,1H,2H,2H-Perfluorooctyl iodide]
3. CC12CCC3c4ccc(O)cc4CCC3C1CCC2O (stereo not drawn) [17alpha-Estradiol]

[out]
1. 1.52%
2. -0.32%
3. -0.072%

Go through the list and state LDH release cytotoxicity for each entry.
1. C=C(C)C1Cc2c(ccc3c2OC2COc4cc(OC)c(OC)cc4C2C3=O)O1 (configuration not stated) [Rotenone]
2. ClC1=C(Cl)C2(Cl)C3C(Cl)C(Cl)CC3C1(Cl)C2(Cl)Cl (configuration not stated) [Chlordane]
3. CC12CCC3C(CCC4=CC(=O)CCC43C)C1CCC2=O (configuration not stated) [4-Androstene-3,17-dione]
4. CC(=NC#N)N(C)Cc1ccc(Cl)nc1 [Acetamiprid]
5. Cc1ccc(S(=O)(=O)NC(=O)NN2CCCCCC2)cc1 [Tolazamide]

[out]
1. 71.8%
2. -0.758%
3. -0.324%
4. -2.26%
5. -0.0919%

====

System: HepaRG
Experiment: LDH release cytotoxicity, % of total lysis control; higher = more cytotoxic
Settings: 0.0314647 µM; 48 h
measurement-kind: LDH release cytotoxicity (%)
Numbers only, in %.

Oc1nc(O)nc(O)n1 | -2.84
CC(C1CC1)C(O)(Cn1cncn1)c1ccc(Cl)cc1 (centres undefined) | -2.83
C#CCC1=C(C)C(OC(=O)C2C(C=C(C)C)C2(C)C)CC1=O (centres undefined) | -1.54

Please examine the following record next.
Note to self: LDH release cytotoxicity recorded for CCCCOC(=O)C(C)Oc1ccc(Oc2ccc(C#N)cc2F)cc1 (centres undefined) was -1.16

Just for reference, the supplement of paper PMC7840683 is where these values come from.
